measurement.label: melting point

> print(dat)
                               smiles.input  measurement.label           result
1  O=C(CCc1oc(-n2cnc3ccccc32)nc1-c1ccc(Cl)cc1)NCc1ccc(Cl)cc1      melting point    190 to 191 °C
2  O=C(CCc1oc(-n2cnc3ccccc32)nc1-c1ccc(Cl)cc1)NCc1ccccn1      melting point    157 to 158 °C
3  NC(=O)c1ccc(NC(=O)CCc2sc(-c3ccccc3)nc2-c2ccc(Cl)cc2)cc1      melting point  ≥ 300 °C (dec.)
4  CCOP(=O)(Cc1ccc(NC(=O)CCc2oc(-n3cnc4ccccc43)nc2-c2ccccc2)cc1)OCC      melting point    148 to 149 °C
5  CCOP(=O)(CCc1ccc(NC(=O)CCCc2oc(-n3cnc4ccccc43)nc2-c2ccc(Cl)cc2)cc1)OCC      melting point    116 to 117 °C
6  O=C(CCCc1oc(-n2cnc3ccccc32)nc1-c1ccc(Cl)cc1)Nc1ccc(S(=O)(=O)Nc2nccs2)cc1      melting point    243 to 244 °C
7  CCOP(=O)(Cc1ccc(NC(=O)/C=C/c2sc(-n3cnc4ccccc43)nc2C)cc1)OCC      melting point    150 to 151 °C
8  CCOP(=O)(CCCNC(=O)CCc1oc(-n2cnc3ccccc32)nc1-c1ccc(Cl)cc1)OCC      melting point    130 to 131 °C

* * *

Known melting point of a selection of compounds
measurement.label: melting point

> print(dat)
                                    compound         result
 1  CN(C)C(=O)Cc1ccc(NC(=O)CCc2oc(-n3cnc4ccccc43)nc2-c2ccc(Cl)cc2)cc1  207 to 208 °C
 2  CCOP(=O)(Cc1ccc(NC(=O)CCc2sc(NC(=O)c3ccccn3)nc2-c2ccc(Cl)cc2)cc1)OCC  184 to 185 °C
 3  CCOP(=O)(Cc1cccc(NC(=O)CCCc2oc(-n3cnc4ccccc43)nc2-c2ccc(Cl)cc2)c1)OCC  135 to 136 °C
 4  O=C(CCc1oc(-n2cnc3ccccc32)nc1-c1ccccc1)N1CCC(O)CC1  157 to 158 °C
 5  Cc1nccn1-c1nc(-c2ccc(Cl)cc2)c(CCC(=O)Nc2ccc(CC#N)cc2)o1  187 to 188 °C
 6  CCN(CC)C(=O)Cc1ccc(NC(=O)CCc2oc(-n3cnc4ccccc43)nc2-c2ccc(Cl)cc2)cc1  209 to 210 °C
 7  O=C(CCc1oc(-n2cnc3ccccc32)nc1-c1ccc(Cl)cc1)NCc1ccc(F)c(Cl)c1  188 to 189 °C
 8  O=C(CCc1sc(-c2ccccc2)nc1-c1ccc(Cl)cc1)Nc1ccc(C(=O)O)cc1  294 to 295 °C
 9  O=C(CCc1oc(-n2cnc3ccccc32)nc1-c1ccc(Cl)cc1)N1CCCC(O)C1 (centres unmarked)  104 to 105 °C
10  CCOP(=O)(Cc1ccc(NC(=O)CCc2oc(-c3ccc4ccccc4c3)nc2-c2ccc(Cl)cc2)cc1)OCC  191 to 192 °C
11  N#CCc1cccc(NC(=O)CCc2oc(-n3cnc4ccccc43)nc2-c2ccc(Cl)cc2)c1  188 to 189 °C
12  O=C(CCCc1sc(-n2cnc3ccccc32)nc1-c1ccc(Cl)cc1)NCc1cc(Br)ccc1F  160 to 161 °C
13  CCOC(=O)c1ccc(NC(=O)/C=C/c2oc(-c3ccccc3)nc2-c2ccc(Cl)cc2)cc1  135 to 140 °C
14  NS(=O)(=O)c1ccc(CNC(=O)CCc2oc(-c3ccccc3)nc2-c2ccc(Cl)cc2)cc1  225 to 227 °C
15  O=C(CCc1oc(-n2cnc3ccccc32)nc1-c1ccc(Cl)cc1)NCC(=O)NCc1ccccc1  186 to 187 °C
16  CCOP(=O)(Cc1ccc(NC(=O)CCc2oc(-n3ccnc3)nc2-c2ccc(Cl)cc2)cc1)OCC  196 to 197 °C
17  O=C(CCCc1oc(-n2cnc3ccccc32)nc1-c1ccc(Cl)cc1)NCc1cc(Br)ccc1F  196 to 198 °C
18  O=C(CCc1oc(-n2cnc3ccccc32)nc1-c1ccc(Cl)cc1)Nc1ccccc1  226 to 227 °C
19  COP(=O)(Cc1ccc(NC(=O)CCCCCc2sc(-c3ccccc3)nc2-c2ccc(Cl)cc2)cc1)OC  164 to 165 °C
20  N#CCc1ccccc1NC(=O)CCc1oc(-n2cnc3ccccc32)nc1-c1ccc(Cl)cc1  235 to 236 °C
21  CC(C)c1ccc(NC(=O)CCc2oc(-n3cnc4ccccc43)nc2-c2ccc(Cl)cc2)cc1  232 to 233 °C
22  CC(C)(C)c1ccc(CNC(=O)CCc2oc(-n3cnc4ccccc43)nc2-c2ccc(Cl)cc2)cc1  170 to 171 °C
23  O=C(/C=C/c1oc(-c2ccccc2)nc1-c1ccc(Cl)cc1)Nc1ccc(C(=O)O)cc1  275 to 276 °C
24  NC(=O)CCc1oc(-n2cnc3ccccc32)nc1-c1ccc(Cl)cc1  265 to 266 °C
25  O=C(CCc1oc(-n2cnc3ccccc32)nc1-c1ccc(Cl)cc1)Nc1ccccc1CO  159 to 160 °C
26  CN(C)c1ccc(CNC(=O)CCc2oc(-n3cnc4ccccc43)nc2-c2ccc(Cl)cc2)cc1  184 to 185 °C
27  N#CCc1ccc(NC(=O)CCc2oc(-n3cnc4ccccc43)nc2-c2ccc(Cl)cc2)cc1  212 to 214 °C
28  CCOP(=O)(OCC)C(OC)c1ccc(NC(=O)CCc2oc(-n3cnc4ccccc43)nc2-c2ccc(Cl)cc2)cc1 (centres unmarked)  191 to 192 °C
29  CCOP(=O)(Cc1ccc(NC(=O)/C=C/c2sc(-n3cnc4ccccc43)nc2C(C)(C)C)cc1)OCC  211 to 212 °C
30  O=C(CCc1oc(-n2cnc3ccccc32)nc1-c1ccc(Cl)cc1)Nc1ccc(F)cc1  221 to 222 °C
31  Cc1ccc(CNC(=O)CCCc2sc(-n3cnc4ccccc43)nc2-c2ccc(Cl)cc2)cc1  138 to 139 °C
32  N#CCc1ccc(NC(=O)Cc2sc(-n3cnc4ccccc43)nc2-c2ccc(Cl)cc2)cc1  245 to 246 °C

* * *

Known melting point of a selection of molecules
measurement.label: melting point

> print(dat)
                                   molecule         result
1  O=C(CCc1oc(-c2ccccc2)nc1-c1ccc(Cl)cc1)Nc1ccc(CN2CCCCC2)cc1 [Example 95]  223 to 225 °C
2  CCOP(=O)(Cc1ccc(NC(=O)CCc2oc(-n3cnc4ccccc43)nc2-c2ccc(Cl)cc2)cc1)OCC [Example 5]  159 to 160 °C
3  COC(=O)Cc1csc(NC(=O)CCc2oc(-n3cnc4ccccc43)nc2-c2ccc(Cl)cc2)n1 [Example 129]  233 to 234 °C
4  O=C(CCc1oc(-n2cnc3ccccc32)nc1-c1ccc(Cl)cc1)NCc1cc(F)ccc1F [Example 158]  197 to 198 °C
5  CN1CCC(N(C)C(=O)CCc2oc(-n3cnc4ccccc43)nc2-c2ccc(Cl)cc2)CC1 [Example 193]  133 to 134 °C
6  O=C(CCc1oc(-n2cnc3ccccc32)nc1-c1ccc(Cl)cc1)NCc1c(F)cccc1F [Example 156]  225 to 226 °C
7  O=C(CCc1oc(-n2cnc3ccccc32)nc1-c1ccc(Cl)cc1)NCc1ccc(Cl)c(Cl)c1 [Example 147]  190 to 191 °C
8  O=C(CCc1oc(-n2cnc3ccccc32)nc1-c1ccc(Cl)cc1)NCc1ccccc1 [Example 132]  205 to 206 °C

* * *

measurement.label: melting point

> print(dat)
                               smiles.input         result
1   NC(=O)CCc1sc(-c2ccccc2)nc1-c1ccc(Cl)cc1  175 to 176 °C
2   NC(=O)CCc1oc(Cc2ccccc2)nc1-c1ccc(Cl)cc1  169 to 170 °C
3  O=C(CCc1oc(-n2cnc3ccccc32)nc1-c1ccc(F)cc1)N1CCC(O)CC1  158 to 159 °C
4  COc1cc(NC(=O)CCc2oc(-n3cnc4ccccc43)nc2-c2ccc(Cl)cc2)cc(OC)c1OC  228 to 229 °C
5  CCCc1nc(-c2ccc(Cl)cc2)c(CCC(=O)N2CCN(CC3CCN(C)CC3)CC2)o1.Cl.Cl         218 °C
6  O=C(CCc1oc(-n2cnc3ccccc32)nc1-c1ccc(Cl)cc1)NCCc1ccccn1  150 to 151 °C
7  COc1ccc(CNC(=O)CCc2oc(-n3cnc4ccccc43)nc2-c2ccc(Cl)cc2)cc1  210 to 212 °C
8  CCOP(=O)(Cc1ccc(NC(=O)/C=C/c2oc(-c3ccccc3)nc2-c2ccc(Cl)cc2)cc1)OCC  204 to 206 °C
